System under test: YbxF/OapC WT (Bacillus halodurans C-125)
Sequence: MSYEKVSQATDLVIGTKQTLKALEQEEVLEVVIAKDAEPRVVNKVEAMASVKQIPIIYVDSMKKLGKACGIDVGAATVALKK
Experiment notes: filter binding
Condition label: Filter binding: 20 mM Tris-HCl pH 7.5, 150 mM NaCl, 10 mM MgCl2, 1 mM TCEP, ~20 C, 15 min, ~10 pM RNA
Measurement kind: binding

1) GGCAUUUAAAGAGGAUUACAGUGUGGACUAAGUGGUAAUCCAGUCUGGCGUUUGGUGACAGCGCCAAGUUCAACAUAAAGGGAAACCGCCAGCGCGGCGACGCACUGGUGUUGAAUUGGGAAAUCCUACUGGACCUAAGCCACAGAGUUUACUCUUUAAAUG [OLE449-608]: no binding
2) GGCACAUCGAUGAAGCUCCUUGUGAUGGCUUGAGGCGCCCAGCCUUGGGUCAUUGCUGGGAGAAAAGGUAGUAGGGCGAUCCACAAAGGCAUGUGGGCGAUGACCCUCCUACUGUGGAGGCCUUUUUCUCUGCUGCUUAUGUAUGGACAUAGGGCAAGAGCAAAGGGUAUGAACCUGCGAAGGCAAGCUAGGGAGCUUGUCAGCAGCGUAGCC [OLE78-290]: binds
3) GGCCUUGAGUGGAGUAGAGGGGAUUAUGGGUUUUGAAGCAAUCCGCUGUCGGCCAACAGCCAUUGCCUCUCUAGUACCAUAUGAAAUCUGCUCUGCAAAAGAG [OLE293-394]: no binding
